Tested on: hepatocellular carcinoma (SKHep1)
test-details: In vitro anticancer assay (MTT), SKHep1
Assay type: cell-based
assay-context: Homo sapiens, SK-HEP1, SKHep1 cells, 48 hrs, mean ± spread, read-out: Anti-proliferative evaluation IC50, SKHep1
observation-type: IC50 (µM)
Write it as a number; the unit µM goes unstated.

Query: // Input: COc1cc2c(cc1OC)-c1c(N3CCNCC3)nc3ccccc3c1C2=O . Output its IC50 only.
Result: 6.6

Query: Kindly indicate its recorded IC50. Item: COc1ccc2c(c1)C(=O)c1c-2c(N2CCN(C(=O)CCNCCN(C)C)CC2)nc2ccccc12
Result: 5.1

Query: Given COc1ccc2c(c1)C(=NO)c1c-2c(N2CCNCC2)nc2ccccc12 , respond with its IC50.
Result: 3.8

Query: For CNCC(O)CN1CCN(c2nc3ccccc3c3c2-c2ccc(OC)cc2C3=O)CC1 (centres unmarked) , write its IC50.
Result: 3.4

* * *

Test system: oral squamous cell carcinoma (SAS)
test-details: In vitro anticancer assay (MTT), SAS
Type: cell-based
assay-context: SAS cells, 48 hrs, mean ± spread, read-out: Anti-proliferative evaluation IC50, SAS
The reader will find reported pIC50 values listed item by item below.
// field semantics: pIC50 = negative decimal log of concentration (mol/L)

Below are worked cases with known answers.
Query: Lab note: oral squamous cell carcinoma (SAS) assay, enter pIC50 for ON=C1c2cc(F)ccc2-c2c(N3CCNCC3)nc3ccccc3c21 here
Result: 5.36

Query: Output reported pIC50 of the compound COc1ccc2c(c1)C(=NOCC1CO1)c1c-2c(N2CCN(CC3CO3)CC2)nc2ccccc12 (centres unmarked) on oral squamous cell carcinoma (SAS).
Result: 5.21

Query: Give reported pIC50 for COc1ccc2c(c1)C(=O)c1c-2c(N2CCN(C(=O)CNCCN3CCNCC3)CC2)nc2ccccc12 (oral squamous cell carcinoma (SAS))
Result: 5.05

Query: Provide pIC50, recorded with oral squamous cell carcinoma (SAS), of COc1ccc2c(c1)C(=NOCCN1CCOCC1)c1c-2c(N2CCNCC2)nc2ccccc12
Result: 5.16

New cases:
Query: Given CC[C@@]1(O)C(=O)OCc2c1cc1n(c2=O)Cc2cc3ccccc3nc2-1 [CPT, (+)-camptothecin, reference compound] , report its pIC50 on oral squamous cell carcinoma (SAS).
Result: 5.22

* * *

Test system: human renal clear cell carcinoma
test-details: In vitro anticancer assay (MTT), RCC 768-O
Format: cell-based
assay-context: RCC 768-O cells, 48 hrs, mean ± spread, read-out: Anti-proliferative evaluation IC50, RCC 768-O
observation-type: IC50 (µM)
Express your answer in µM, writing the number without its unit.

Solved entries:
Query: Give the reported IC50 for this molecule. COc1ccc2c(c1)C(=NOCc1ccccc1)c1c-2c(N2CCNCC2)nc2ccccc12
Result: 7

Query: Dear colleague, please send me the reported IC50 for COc1ccc2c(c1)C(=O)c1c-2c(N2CCN(C(=O)CCN(C)C)CC2)nc2ccccc12 when you can.
Result: 11.5

Query: Indicate its recorded IC50; the molecule in question is COc1ccc2c(c1)C(=O)c1c-2c(N2CCN(C(=O)CNCCO)CC2)nc2ccccc12
Result: 6.7

Query: Supply measured IC50 of COc1ccc2c(c1)C(=O)c1c-2c(N2CCN(C(=O)CNCCNCCO)CC2)nc2ccccc12 in your reply.
Result: 7.6

Query: Specify reported IC50 for the molecule shown: COc1ccc2c(c1)C(=O)c1c-2c(N2CCN(C(=O)CNCCN(C)C)CC2)nc2ccccc12
Result: 9.4

Query: Query IC50 for O=C1c2ccccc2-c2c(N3CCNCC3)nc3ccccc3c21
Result: 7.7

---
Query: Supply recorded IC50 for COc1ccc2c(c1)C(=O)c1c-2c(N2CCN(C(=O)CN3CCNCC3)CC2)nc2ccccc12 here.
Result: 4

* * *

System: human renal clear cell carcinoma
test-details: In vitro anticancer assay (MTT), RCC 768-O
Type: cell-based
assay-context: RCC 768-O cells, 48 hrs, mean ± spread, read-out: Anti-proliferative evaluation IC50, RCC 768-O
Protocol: The resultant tetrazolium salt was then dissolved by the addition of dimethyl sulfoxide. Color was measured spectrophotometrically in a microtiter plate reader at 570 nm and used as a relative measure of viable cell number. The number of viable cells after treatment was compared to solvent and untreated control cells and used to determine the percent of control growth as (Abtreated/Abcontrol)×100, where Ab represents the mean absorbance (n=3). […] D. Heo et al. […]
Overview of reported IC50 across a group of molecules:
Give the number; µM is assumed, so skip it.

Query: Determine from records and report IC50 for CON=C1c2cc(F)ccc2-c2c(N3CCNCC3)nc3ccccc3c21
Result: 7

Query: Given the molecule CNCC(=O)N1CCN(c2nc3ccccc3c3c2-c2ccc(OC)cc2C3=O)CC1 , write its reported IC50.
Result: 6.2

***
Query: Answer with the recorded IC50 of COc1ccc2c(c1)C(=O)c1c-2c(N2CCN(CC(O)CN(C)C)CC2)nc2ccccc12 (stereo not shown) only.
Result: 6.8

* * *

Tested on: esophageal carcinoma (CE81T)
test-details: In vitro anticancer assay (MTT), CE81T
Assay type: cell-based
assay-context: CE81T cells, 48 hrs, mean ± spread, read-out: Anti-proliferative evaluation IC50, CE81T
observation-type: IC50 (µM)
Give a bare numeral; the unit µM is implied.

In the examples that follow, each entry is paired with its recorded IC50.
Query: Input COc1ccc2c(c1)C(=O)c1c-2c(N2CCN(C(=O)CCNCCO)CC2)nc2ccccc12 [Compound 5aaa] , output reported IC50.
Result: 7.1

Query: Query IC50 for COc1ccc2c(c1)C(=O)c1c-2c(N2CCN(C(=O)CN3CCNCC3)CC2)nc2ccccc12 [Compound 5tt]
Result: 7.2

Query: Name the recorded IC50 of the item COc1ccc2c(c1)C(=NOCC(O)CN(C)C)c1c-2c(N2CCN(CC(O)CN(C)C)CC2)nc2ccccc12 (centres unmarked) [Compound 6z] in your answer.
Result: 9

New cases:
Query: Give reported IC50 value for CC[C@@]1(O)C(=O)OCc2c1cc1n(c2=O)Cc2cc3ccccc3nc2-1 [CPT, (+)-camptothecin, reference compound]
Result: 2.8

Query: Please report IC50 for the following compound: CNCC(O)CN1CCN(c2nc3ccccc3c3c2-c2ccc(OC)cc2C3=O)CC1 (centres unmarked) [Compound 5lll]
Result: 0.9

Query: Kindly indicate its recorded IC50. Item: COc1ccc2c(c1)C(=NOCCN1CCCC1)c1c-2c(N2CCNCC2)nc2ccccc12 [Compound 6u]
Result: 2.9

Query: Please look at this compound and report its IC50: ON=C1c2ccccc2-c2c(N3CCNCC3)nc3ccccc3c21 [Compound 6i]
Result: 3.5

* * *

Test system: esophageal carcinoma (CE81T)
test-details: In vitro anticancer assay (MTT), CE81T
Assay type: cell-based
assay-context: CE81T cells, 48 hrs, mean ± spread, read-out: Anti-proliferative evaluation IC50, CE81T
Collected IC50 values appear next to each entry.
Lab book: enter the figure in µM, no units written.

Query: Tell me its IC50 given COc1ccc2c(c1)C(=O)c1c-2c(N2CCN(C(=O)CCNCCCN(C)C)CC2)nc2ccccc12 as the entry.
Result: 9.4

Lab note: next compound to report on.
Query: Name the recorded IC50 of the compound listed here: COc1ccc2c(c1)C(=O)c1c-2c(Nc2ccc(C(C)=O)cc2)nc2ccccc12
Result: 6.8

* * *

Test system: human stomach adenocarcinoma (AGS)
test-details: In vitro anticancer assay (MTT), AGS
Assay type: cell-based
assay-context: Homo sapiens, AGS cells, 48 hrs, mean ± spread, read-out: Anti-proliferative evaluation IC50, AGS
observation-type: IC50 (µM)
Report as a plain number; the unit µM is understood.

# count of solved cases: 3
Query: Answer with the recorded IC50 of O=C1c2ccccc2-c2c(NCCNCCO)nc3ccccc3c21 only.
Result: 7.9

Query: Determine its reported IC50: COc1ccc2c(c1)C(=NOCCCN(C)C)c1c-2c(N2CCNCC2)nc2ccccc12
Result: 6.8

Query: Give recorded IC50. COc1cc2c(cc1OC)-c1c(N3CCNCC3)nc3ccccc3c1C2=O
Result: 7.4

Others:
Query: Using known records, supply IC50 for COc1ccc2c(c1)C(=O)c1c-2c(N2CCNCC2)nc2ccc(F)cc12
Result: 6.5

Query: Output measured IC50 for this item: COc1ccc2c(c1)C(=NOCCN1CCCC1)c1c-2c(O)nc2ccccc12
Result: 10.4

* * *

Tested on: oral squamous cell carcinoma (SAS)
test-details: In vitro anticancer assay (MTT), SAS
Assay type: cell-based
assay-context: SAS cells, 48 hrs, mean ± spread, read-out: Anti-proliferative evaluation IC50, SAS
Description: The resultant tetrazolium salt was then dissolved by the addition of dimethyl sulfoxide. Color was measured spectrophotometrically in a microtiter plate reader at 570 nm and used as a relative measure of viable cell number. The number of viable cells after treatment was compared to solvent and untreated control cells and used to determine the percent of control growth as (Abtreated/Abcontrol)×100, where Ab represents the mean absorbance (n=3). […] D. Heo et al. […]
pIC50: −log10 of the molar value.
observation-type: pIC50

Recorded results for 5 compounds are shown here.
Query: Print oral squamous cell carcinoma (SAS) pIC50 for COc1ccc2c(c1)C(=O)c1c-2c(N2CCN(C(=O)CCO)CC2)nc2ccccc12 .
Result: < 4.52

Query: Give measured pIC50 for COc1ccc2c(c1)C(=NO)c1c-2c(N2CCNCC2)nc2ccccc12 (oral squamous cell carcinoma (SAS)).
Result: 5.21

Query: Retrieve pIC50 on oral squamous cell carcinoma (SAS); query COc1ccc2c(c1)C(=O)c1c-2c(N2CCNCC2)nc2ccccc12
Result: < 4.52

Query: Print oral squamous cell carcinoma (SAS) pIC50 for COc1ccc2c(c1)C(=O)c1c-2c(N2CCN(C(=O)CNCCN)CC2)nc2ccccc12 .
Result: < 4.52

Query: Give measured pIC50 for COc1ccc2c(c1)C(=O)c1c-2c(N2CCN(C(=O)CNCCCN(C)CCCN)CC2)nc2ccccc12 (oral squamous cell carcinoma (SAS)).
Result: < 4.52

Continuing:
Query: For oral squamous cell carcinoma (SAS), give pIC50 of the listed compound: O=C1c2ccccc2-c2c(NCCNCCO)nc3ccccc3c21
Result: 5.14

Query: Tell me pIC50 of COc1ccc(Nc2nc3ccccc3c3c2-c2ccc(OC)cc2C3=O)c(OC)c1 when tested on oral squamous cell carcinoma (SAS).
Result: < 4.52

Query: Fill in: pIC50 on oral squamous cell carcinoma (SAS), entry CON=C1c2ccccc2-c2c(N3CCNCC3)nc3ccccc3c21
Result: 5.11
